Reference source for all entries: paper PMC10786891

Parameter: pKd. Scope: all listed entries.
Target: T1, EsCas13d, nuclease-dead (Eubacterium siraeum, UniProt B0MS50, R295A;H300A;R849A;H854A)
T1 sequence: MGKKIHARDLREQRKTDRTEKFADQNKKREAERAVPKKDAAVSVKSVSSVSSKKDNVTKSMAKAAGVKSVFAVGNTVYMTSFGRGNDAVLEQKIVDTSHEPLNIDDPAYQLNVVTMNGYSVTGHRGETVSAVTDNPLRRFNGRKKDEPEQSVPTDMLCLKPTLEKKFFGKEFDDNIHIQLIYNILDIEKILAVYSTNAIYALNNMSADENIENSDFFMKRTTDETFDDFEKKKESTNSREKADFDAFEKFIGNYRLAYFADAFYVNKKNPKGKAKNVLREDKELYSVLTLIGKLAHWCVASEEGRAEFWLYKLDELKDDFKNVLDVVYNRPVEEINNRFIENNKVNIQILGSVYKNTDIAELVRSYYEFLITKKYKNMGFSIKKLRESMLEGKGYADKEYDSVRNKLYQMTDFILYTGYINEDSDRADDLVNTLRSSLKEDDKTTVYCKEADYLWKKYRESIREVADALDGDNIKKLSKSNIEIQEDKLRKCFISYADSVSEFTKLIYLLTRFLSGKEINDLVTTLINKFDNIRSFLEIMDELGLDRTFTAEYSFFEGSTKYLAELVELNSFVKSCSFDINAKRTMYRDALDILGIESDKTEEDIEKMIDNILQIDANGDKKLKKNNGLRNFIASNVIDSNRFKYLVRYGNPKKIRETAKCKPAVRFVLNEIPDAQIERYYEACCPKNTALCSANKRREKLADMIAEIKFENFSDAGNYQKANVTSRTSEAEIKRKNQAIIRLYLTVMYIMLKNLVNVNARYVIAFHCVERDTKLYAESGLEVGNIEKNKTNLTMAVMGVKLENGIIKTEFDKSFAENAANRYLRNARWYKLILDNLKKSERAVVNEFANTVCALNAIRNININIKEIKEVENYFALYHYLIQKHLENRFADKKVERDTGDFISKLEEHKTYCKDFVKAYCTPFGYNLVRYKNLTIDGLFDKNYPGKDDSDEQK
Experiment: crRNA (strand 1, pre-loaded); Mg2+; 40 mM Tris-HCl pH 7.5, 150 mM NaCl, 6 mM MgCl2, 1 mM DTT, 0.1% Tween-20, 0.2 mg/ml BSA; 25 C; 10 min per concentration, then washed
Conditions: tags: His6-TwinStrep-SUMO cleaved; N-terminal SNAP kept (SNAP-Surface 488); label: 3' end held by stalled T7 RNA polymerase
pKd: −log10 of the molar value.

[
  {
    "BINDER": "target 2 MT 5'PFS GUC 3'PFS CCG (mixed) RNA 1: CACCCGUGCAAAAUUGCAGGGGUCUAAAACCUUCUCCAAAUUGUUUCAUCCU RNA 2: GGGAAUGGAUCCACAUCUACGAAUUCGUCAGGAUGAAACAAUUUGGAGAAGCCGAGAUCGGAAGAGCACACGU",
    "pKd": 7.83
  },
  {
    "BINDER": "target 1 insG 3' of 16,insA 3' of 12 (mixed) RNA 1: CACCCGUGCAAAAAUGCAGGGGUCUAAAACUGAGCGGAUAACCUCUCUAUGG RNA 2: GGGAAUGGAUCCACAUCUACGAAUUCGUACCAUAGAGGAGGAUUAUCCGCUCACCGAGAUCGGAAGAGCACACGU",
    "pKd": 7.35
  },
  {
    "BINDER": "target 1 insC 3' of 12,insG 3' of 4 (mixed) RNA 1: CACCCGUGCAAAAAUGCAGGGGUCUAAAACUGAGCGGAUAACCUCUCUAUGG RNA 2: GGGAAUGGAUCCACAUCUACGAAUUCGUACCAUAGAGAGGCUUAUCCGCGUCACCGAGAUCGGAAGAGCACACGU",
    "pKd": 8.24
  },
  {
    "BINDER": "target 2 MT 5'PFS GCA 3'PFS UGA (mixed) RNA 1: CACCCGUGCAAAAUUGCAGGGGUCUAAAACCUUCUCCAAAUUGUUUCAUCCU RNA 2: GGGAAUGGAUCCACAUCUACGAAUUCGCAAGGAUGAAACAAUUUGGAGAAGUGAAGAUCGGAAGAGCACACGU",
    "pKd": 7.89
  },
  {
    "BINDER": "target 1 U3G,U19G (mixed) RNA 1: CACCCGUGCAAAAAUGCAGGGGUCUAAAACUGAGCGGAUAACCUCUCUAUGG RNA 2: GGGAAUGGAUCCACAUCUACGAAUUCGUACCAGAGAGAGGUUAUCCGCGCACCGAGAUCGGAAGAGCACACGU",
    "pKd": 7.44
  }
]
